Recorded Stimulation for the following compounds
target: Guanine nucleotide-binding protein G(i) subunit alpha-1 (Homo sapiens); assay: Percent stimulation of [35S]GTP-gamma-S, binding to G alpha i1 at 5E-5 M of basal for 30 minutes; type: functional
Sequence (P63096 whole entry): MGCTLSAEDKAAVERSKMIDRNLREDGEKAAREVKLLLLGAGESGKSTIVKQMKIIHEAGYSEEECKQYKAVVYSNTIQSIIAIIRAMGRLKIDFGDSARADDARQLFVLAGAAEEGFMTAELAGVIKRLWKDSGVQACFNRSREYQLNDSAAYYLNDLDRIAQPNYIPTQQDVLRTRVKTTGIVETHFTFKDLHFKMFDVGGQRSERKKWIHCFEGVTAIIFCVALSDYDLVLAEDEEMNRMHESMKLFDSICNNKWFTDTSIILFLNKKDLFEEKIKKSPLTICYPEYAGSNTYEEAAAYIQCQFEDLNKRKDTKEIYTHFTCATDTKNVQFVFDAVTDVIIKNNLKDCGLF
VALUE KIND: Stimulation (%)

{"COMPOUND": "CCCCCCCCCCCCCCCN1CCC(CCC2CCNCC2)CC1", "OBSERVED": 2460}
{"COMPOUND": "CCCCCCCCCCCCCCCCCN1CCC(C2CCNCC2)CC1", "OBSERVED": 5690}
{"COMPOUND": "CCCCCCCCCCCCNC(=O)C(N)CCCCN (stereo unspecified)", "OBSERVED": 900}
{"COMPOUND": "CCCCCCCCCCCCCNC1CCNCC1", "OBSERVED": 1480}
{"COMPOUND": "CCCCCCCCCCCCCCCN1CCC(CCC2CCN(C)CC2)CC1", "OBSERVED": 86}
{"COMPOUND": "CCCCCCCCCCCCCCCCC(=O)N1CCC(C2CCN(C)CC2)CC1", "OBSERVED": 232}

* * *

target: Guanine nucleotide-binding protein G(o) subunit alpha (Homo sapiens, UniProt P09471); assay: Percent stimulation of [35S]GTP-gamma-S, binding to G alpha o1 at 5E-5 M of basal for 30 minutes; format: functional
Sequence (P09471 2-354 limits assumed): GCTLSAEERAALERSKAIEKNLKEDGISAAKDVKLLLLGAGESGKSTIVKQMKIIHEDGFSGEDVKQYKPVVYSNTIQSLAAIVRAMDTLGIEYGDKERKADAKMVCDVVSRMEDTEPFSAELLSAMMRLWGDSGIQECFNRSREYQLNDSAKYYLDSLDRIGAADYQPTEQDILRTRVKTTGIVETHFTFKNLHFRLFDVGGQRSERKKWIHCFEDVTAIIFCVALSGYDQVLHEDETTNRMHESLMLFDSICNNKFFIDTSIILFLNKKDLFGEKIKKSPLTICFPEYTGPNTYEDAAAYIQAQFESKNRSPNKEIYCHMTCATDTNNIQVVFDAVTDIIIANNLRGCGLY

{"MOLECULE": "CCCCCCCCCCCCCCCNC(=O)C1CCN(CCN)CC1", "TARGET OR TEST SYSTEM": "Guanine nucleotide-binding protein G(o) subunit alpha (Homo sapiens, UniProt P09471)", "Stimulation (%)": 3350}
{"MOLECULE": "CCCCCCCCCCCCCCCNCC1CCNCC1", "TARGET OR TEST SYSTEM": "Guanine nucleotide-binding protein G(o) subunit alpha (Homo sapiens, UniProt P09471)", "Stimulation (%)": 4160}
{"MOLECULE": "CCCCCCCCCCCCCCC(=O)NC1CCNCC1", "TARGET OR TEST SYSTEM": "Guanine nucleotide-binding protein G(o) subunit alpha (Homo sapiens, UniProt P09471)", "Stimulation (%)": 1370}
{"MOLECULE": "CCCCCCCCCCCCCCCN1CCC(C2CCN(C)CC2)CC1", "TARGET OR TEST SYSTEM": "Guanine nucleotide-binding protein G(o) subunit alpha (Homo sapiens, UniProt P09471)", "Stimulation (%)": 93}
{"MOLECULE": "CCCCCCCCCCCCC(=O)N1CCC(C2CCNCC2)CC1", "TARGET OR TEST SYSTEM": "Guanine nucleotide-binding protein G(o) subunit alpha (Homo sapiens, UniProt P09471)", "Stimulation (%)": 1500}
{"MOLECULE": "CCCCCCCCCCCCCCC(=O)N1CCC(CCC2CCNCC2)CC1", "TARGET OR TEST SYSTEM": "Guanine nucleotide-binding protein G(o) subunit alpha (Homo sapiens, UniProt P09471)", "Stimulation (%)": 724}
{"MOLECULE": "CCCCCCCCCCCCCCC[N+]1(C)CCC(C2CCNCC2)CC1 (stereo not given)", "TARGET OR TEST SYSTEM": "Guanine nucleotide-binding protein G(o) subunit alpha (Homo sapiens, UniProt P09471)", "Stimulation (%)": 2090}
{"MOLECULE": "CCCCCCCCCCCCCCCN1CCC(CCC2CCNCC2)CC1", "TARGET OR TEST SYSTEM": "Guanine nucleotide-binding protein G(o) subunit alpha (Homo sapiens, UniProt P09471)", "Stimulation (%)": 5010}
{"MOLECULE": "COc1ccccc1CN1CCC(C2CCNCC2)CC1", "TARGET OR TEST SYSTEM": "Guanine nucleotide-binding protein G(o) subunit alpha (Homo sapiens, UniProt P09471)", "Stimulation (%)": 129}
{"MOLECULE": "CCCCCCCCCCCCCCCCC(=O)N1CCC(C2CCNCC2)CC1", "TARGET OR TEST SYSTEM": "Guanine nucleotide-binding protein G(o) subunit alpha (Homo sapiens, UniProt P09471)", "Stimulation (%)": 920}
{"MOLECULE": "CCCCCCCCCCCCCCCNCC1CCN(CCN)CC1", "TARGET OR TEST SYSTEM": "Guanine nucleotide-binding protein G(o) subunit alpha (Homo sapiens, UniProt P09471)", "Stimulation (%)": 942}
{"MOLECULE": "CCCCCCCCCCCCCCC(=O)N1CCC(C2CCNCC2)CC1", "TARGET OR TEST SYSTEM": "Guanine nucleotide-binding protein G(o) subunit alpha (Homo sapiens, UniProt P09471)", "Stimulation (%)": 2390}
{"MOLECULE": "CCCCCCCCCCCCC(=O)N1CCC(C2CCN(C)CC2)CC1", "TARGET OR TEST SYSTEM": "Guanine nucleotide-binding protein G(o) subunit alpha (Homo sapiens, UniProt P09471)", "Stimulation (%)": 126}
{"MOLECULE": "CCCCCCCCCCCCCCCNC(=O)C1CCNCC1", "TARGET OR TEST SYSTEM": "Guanine nucleotide-binding protein G(o) subunit alpha (Homo sapiens, UniProt P09471)", "Stimulation (%)": 2270}
{"MOLECULE": "CCCCCCCCCCCCCCC(=O)N1CCC(N)CC1", "TARGET OR TEST SYSTEM": "Guanine nucleotide-binding protein G(o) subunit alpha (Homo sapiens, UniProt P09471)", "Stimulation (%)": 1280}
